- TEST SUMMARY: protease stability score; higher = more stable; yeast display proteolysis, trypsin and chymotrypsin;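 note: relative to predicted unfolded state with 0 unfolded-like and 1 meaning tenfold more protease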
Returns one of 1 or 0; 1 when protease stability score is >= 1.

DEEHQHSLARTLATALRTGDPEKMKDLADKDVKVVVGDKHIKGRKDAKKWAKDWRDRYDHAQVDDVNVQGENVRIVMNVEVDGHNVVVVMTAIIDGDQVKNVKVTARNEEQEKKMKK 0
DELRDEVRRWLTKLIEDHKTGDEKAMMELADPNVKVVIDGKELVGMELYEHFVRYWREHIRLTDLKIHDMRIQGDKVHAETRVEGNFNGKYRVIETRVLIVKINGRWFLKEIEID 1

Task: // inclusive: protease stability score at least 1? input: `DELNEITHKFMHEFLRAELTGDWEELHRMLDPHARYIAHIDGREIHFIGRERVLKFMEEWLRRVKNVRIQINDHRVQGDYNHIDGKLKINGKTHDVHIELVMVDGRNHEIHVFIH`
Output: 1

Task: Would you say `DEREKFAEEIMEIFIRDVLTGDFDSLHKLIDPNTKIDLHIGDKIRPLHGREEFVKWVKEMRIHRWDITDMKVIGDKAHIDTTVDGEFNGRRTRFRQIINLDMVNGRLREIQITIG` shows protease stability score at minimum 1?
Output: 1

Task: Is protease stability score for `DEEEEIVMKNARDLIHLTQTGDFEKQRHLLDPHVLVVLVQGDKRIEQHGWHFWKYLMKEIRIKHIRIDHVEAQGNKAQVRGTVDGNINGRDTHWEFELTFVFIDGRIRTIDIRID` at or above 1?
Output: 1

Task: Say whether `DEKEDHMRKIALILIKDWLTGNEESLRHMADPNVRVHIHQGNKNIHKHGMEALRELWEEIRIRHFNLERQNVINGVVFIDGRVDGEVDGRRVDTDVEVIIVIVNGRMKLLSRHIE` shows protease stability score of 1 or more.
Output: 1

Task: Determine whether measured protease stability score meets or exceeds 1 for `SEEEEIVKRFIELLDHVMKTGDEKFYEHMADPNTRVKQGEFEDHGREAFRWFLKEIRSKDVKTEHVELFDGRLRVEGRLLGVFNGQHVELHMILISVKVDGRWRVKMVIIH`
Output: 1

Task: Quick check, protease stability score >= 1? `SEIDKESEEVARRLLHMEYTGDEEKMIKLLDPHVRLDINGQLFVGREEAERALRQYWHRVDHIHSIEIHDYKTQGDWFHLDIRVDGEIDGQRRDFRVIVHTRIVNGKVKEMHLKFH`
Output: 1

Task: Determine whether this sequence has protease stability score no lower than 1: `DDEEHEARLAVHELREVQRTGDERQLHELIDPDTRFEFPGVTLHGRENMVEWLARIKNLRVESIHERHISIYNGQVDFDMEMHVRDGNKHRTEKWRIIMYKFDGRWSIKSFESR`
Output: 0

Task: # check: protease stability score of `DHREKELEKMARIFIHNLVTGDWRSLEKLADPDAKSEVIIGDKHIEHVGRHEVWKMLFEIRWEQVEVHDIRIYNGRVEIDGHMKGDIDGRRIETDTKIRLTIVNGVVQTFHMEIR` is greater than or equal to 1
Output: 1

Task: hey, is protease stability score for this one >= 1? `SELIKVSRHAMEILVHSWLTGDWERSEELVDPHARTQYGDKHVHGMELFEEIFKEELDRVKGMRLEIIIRRVDLQGNKAEVDGEFRNHVNGVDVRRRMHVELVVVNGVVESTSIRIQ`
Output: 0

Task: Decide: is the reported value of protease stability score for `DEDHQMATIAFHLLIESLLTGDEHTIQEMFDPRVKVNINGVELIGWEALVEHLRRIDHHSIHQWTFRDVRFYDGVLNVLGEVDFEVVFDGRRVSHRVRFHLIIFKIDGKWMTRTVEVK` equal to or greater than 1?
Output: 1

Task: I'd appreciate it if you could say whether `DHREEEQKRLTEEFITALKTGDEERWKELLDPNVKMHINGKDVVGREIAAKDLLDHWKNLGIKHIITHRIELQGEKVRIDTEERFNGRSVKTTMIIIVINGRLESFEFHVH` has protease stability score at least equal to 1.
Output: 0
